target: Sodium-dependent noradrenaline transporter (Homo sapiens); experiment: Displacement of [3H]Nisoxetine from human NET expressed in HEK cells by radioligand binding assay relative to control; assay type: cell-based
Sequence (P23975 whole entry): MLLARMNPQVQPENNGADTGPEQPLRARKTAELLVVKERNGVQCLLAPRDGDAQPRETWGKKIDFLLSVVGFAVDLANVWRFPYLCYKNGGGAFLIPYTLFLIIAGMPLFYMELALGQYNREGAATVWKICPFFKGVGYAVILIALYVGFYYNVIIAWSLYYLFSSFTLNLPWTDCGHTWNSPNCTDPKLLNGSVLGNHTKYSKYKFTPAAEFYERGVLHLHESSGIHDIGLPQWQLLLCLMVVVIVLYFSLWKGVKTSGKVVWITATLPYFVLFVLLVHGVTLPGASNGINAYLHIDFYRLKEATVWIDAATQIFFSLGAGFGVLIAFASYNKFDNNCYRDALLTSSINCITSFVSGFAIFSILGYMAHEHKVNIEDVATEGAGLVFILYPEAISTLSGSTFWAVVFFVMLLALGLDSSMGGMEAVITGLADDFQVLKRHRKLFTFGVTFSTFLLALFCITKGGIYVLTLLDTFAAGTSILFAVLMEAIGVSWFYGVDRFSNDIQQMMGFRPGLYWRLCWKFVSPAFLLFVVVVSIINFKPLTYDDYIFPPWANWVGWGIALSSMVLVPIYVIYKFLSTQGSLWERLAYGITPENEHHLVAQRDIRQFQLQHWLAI
Overview of recorded inhibition (INH) for various molecules
quantity kind: inhibition (INH) (%)

{"item smiles": "OC1(c2ccc(Cl)c(C(F)(F)F)c2)CCN(CCCC(c2ccc(F)cc2)c2ccc(F)cc2)CC1", "quantity kind": "inhibition (INH)", "unit of measure": "%", "readout value": 86.2}
{"item smiles": "OC1(c2ccc(Cl)c(C(F)(F)F)c2)CCN(CCCC(c2ccccc2)c2ccccc2)CC1", "quantity kind": "inhibition (INH)", "unit of measure": "%", "readout value": 90.6}
{"item smiles": "OC1(c2ccc(Cl)c(C(F)(F)F)c2)CCN(CCCN(c2ccc(F)cc2)c2ccc(F)cc2)CC1", "quantity kind": "inhibition (INH)", "unit of measure": "%", "readout value": 97.4}
{"item smiles": "OC1(c2ccc(Cl)c(C(F)(F)F)c2)CCN(CCCCN(c2ccc(F)cc2)c2ccc(F)cc2)CC1", "quantity kind": "inhibition (INH)", "unit of measure": "%", "readout value": 88.2}
{"item smiles": "COc1ccc(N(CCCCN2CCC(O)(c3ccc(Cl)c(C(F)(F)F)c3)CC2)c2ccc(OC)cc2)cc1", "quantity kind": "inhibition (INH)", "unit of measure": "%", "readout value": 86.4}
{"item smiles": "OC1(c2ccc(Cl)c(C(F)(F)F)c2)CCN(CCCCC(c2ccc(F)cc2)c2ccc(F)cc2)CC1", "quantity kind": "inhibition (INH)", "unit of measure": "%", "readout value": 98.3}

---

Items are presented alongside their recorded Ki.
target: 5-hydroxytryptamine receptor 2A (Homo sapiens, UniProt P28223); assay: Displacement of [3H]Ketanserin from 5-HT2A receptor (unknown origin) by radioligand binding assay
Sequence (P28223 whole entry): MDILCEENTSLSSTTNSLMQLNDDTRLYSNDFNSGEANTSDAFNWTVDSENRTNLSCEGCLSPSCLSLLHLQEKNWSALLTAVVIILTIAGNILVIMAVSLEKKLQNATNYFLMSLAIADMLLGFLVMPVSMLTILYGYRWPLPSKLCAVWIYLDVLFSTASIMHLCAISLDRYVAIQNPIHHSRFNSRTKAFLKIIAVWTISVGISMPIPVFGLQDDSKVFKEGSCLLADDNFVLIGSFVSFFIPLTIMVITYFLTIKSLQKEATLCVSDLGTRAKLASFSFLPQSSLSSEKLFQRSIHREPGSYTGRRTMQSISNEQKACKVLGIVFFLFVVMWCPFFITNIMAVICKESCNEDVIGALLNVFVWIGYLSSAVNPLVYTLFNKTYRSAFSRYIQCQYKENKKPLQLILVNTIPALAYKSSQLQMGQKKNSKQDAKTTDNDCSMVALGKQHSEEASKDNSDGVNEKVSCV
quantity kind: Ki (nM)

{"compound": "OC1(c2ccc(Cl)c(C(F)(F)F)c2)CCN(CCCC=C(c2ccc(F)cc2)c2ccc(F)cc2)CC1", "unit of measure": "nM", "readout value": 1100}
{"compound": "OC1(c2ccc(Cl)c(C(F)(F)F)c2)CCN(CCCCN(c2ccc(F)cc2)c2ccc(F)cc2)CC1", "unit of measure": "nM", "readout value": 6060}
{"compound": "OC1(c2ccc(Cl)c(C(F)(F)F)c2)CCN(CCCCC(c2ccc(F)cc2)c2ccc(F)cc2)CC1", "unit of measure": "nM", "readout value": 1000}
{"compound": "COc1ccc(N(CCCCN2CCC(O)(c3ccc(Cl)c(C(F)(F)F)c3)CC2)c2ccc(OC)cc2)cc1", "unit of measure": "nM", "readout value": 900}
{"compound": "OC1(c2ccc(Cl)c(C(F)(F)F)c2)CCN(CCCCCc2ccc(F)cc2)CC1", "unit of measure": "nM", "readout value": 889}
{"compound": "OC1(c2ccc(Cl)c(C(F)(F)F)c2)CCN(CCCC(c2ccccc2)c2ccccc2)CC1", "unit of measure": "nM", "readout value": 1000}
{"compound": "OC1(c2ccc(Cl)c(C(F)(F)F)c2)CCN(CCCN(c2ccc(F)cc2)c2ccc(F)cc2)CC1", "unit of measure": "nM", "readout value": 164}
{"compound": "OC1(c2ccc(Cl)c(C(F)(F)F)c2)CCN(CCCC(c2ccc(F)cc2)c2ccc(F)cc2)CC1 [PENFLURIDOL]", "unit of measure": "nM", "readout value": 361}

---

target: Mu-type opioid receptor (Homo sapiens); test: Displacement of [3H]DAMGO from human MOR expressed in HEK cells by radioligand binding assay relative to control; format: cell-based; design: concentration or dose not given beside the values; details: concentration not given here
Sequence (P35372 whole entry): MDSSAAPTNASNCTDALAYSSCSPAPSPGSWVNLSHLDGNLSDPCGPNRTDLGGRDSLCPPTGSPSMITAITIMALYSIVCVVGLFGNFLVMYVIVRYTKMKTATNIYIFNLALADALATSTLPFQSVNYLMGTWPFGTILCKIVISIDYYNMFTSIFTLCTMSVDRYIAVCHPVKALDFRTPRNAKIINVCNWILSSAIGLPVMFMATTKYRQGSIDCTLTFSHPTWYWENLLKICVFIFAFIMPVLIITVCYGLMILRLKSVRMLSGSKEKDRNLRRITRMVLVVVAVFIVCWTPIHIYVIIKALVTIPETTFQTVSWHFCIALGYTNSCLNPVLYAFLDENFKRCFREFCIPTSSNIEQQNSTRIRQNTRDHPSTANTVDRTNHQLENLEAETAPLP
Listed here are molecules together with their documented inhibition.

{"item smiles": "OC1(c2ccc(Cl)c(C(F)(F)F)c2)CCN(CCCC(c2ccccc2)c2ccccc2)CC1", "unit of measure": "%", "inhibition": 90.3}
{"item smiles": "OC1(c2ccc(Cl)c(C(F)(F)F)c2)CCN(CCCCC(c2ccc(F)cc2)c2ccc(F)cc2)CC1", "unit of measure": "%", "inhibition": 89}
{"item smiles": "COc1ccc(N(CCCCN2CCC(O)(c3ccc(Cl)c(C(F)(F)F)c3)CC2)c2ccc(OC)cc2)cc1", "unit of measure": "%", "inhibition": 76.8}
{"item smiles": "OC1(c2ccc(Cl)c(C(F)(F)F)c2)CCN(CCCCCc2ccc(F)cc2)CC1", "unit of measure": "%", "inhibition": 86.2}
{"item smiles": "OC1(c2ccc(Cl)c(C(F)(F)F)c2)CCN(CCCC(c2ccc(F)cc2)c2ccc(F)cc2)CC1", "unit of measure": "%", "inhibition": 87}
{"item smiles": "OC1(c2ccc(Cl)c(C(F)(F)F)c2)CCN(CCCC=C(c2ccc(F)cc2)c2ccc(F)cc2)CC1", "unit of measure": "%", "inhibition": 90.6}
{"item smiles": "OC1(c2ccc(Cl)c(C(F)(F)F)c2)CCN(CCCCN(c2ccc(F)cc2)c2ccc(F)cc2)CC1", "unit of measure": "%", "inhibition": 61.5}
{"item smiles": "OC1(c2ccc(Cl)c(C(F)(F)F)c2)CCN(CCCN(c2ccc(F)cc2)c2ccc(F)cc2)CC1", "unit of measure": "%", "inhibition": 97.4}

---

target: Alpha-2C adrenergic receptor (Homo sapiens, UniProt P18825)
Sequence (P18825 whole entry): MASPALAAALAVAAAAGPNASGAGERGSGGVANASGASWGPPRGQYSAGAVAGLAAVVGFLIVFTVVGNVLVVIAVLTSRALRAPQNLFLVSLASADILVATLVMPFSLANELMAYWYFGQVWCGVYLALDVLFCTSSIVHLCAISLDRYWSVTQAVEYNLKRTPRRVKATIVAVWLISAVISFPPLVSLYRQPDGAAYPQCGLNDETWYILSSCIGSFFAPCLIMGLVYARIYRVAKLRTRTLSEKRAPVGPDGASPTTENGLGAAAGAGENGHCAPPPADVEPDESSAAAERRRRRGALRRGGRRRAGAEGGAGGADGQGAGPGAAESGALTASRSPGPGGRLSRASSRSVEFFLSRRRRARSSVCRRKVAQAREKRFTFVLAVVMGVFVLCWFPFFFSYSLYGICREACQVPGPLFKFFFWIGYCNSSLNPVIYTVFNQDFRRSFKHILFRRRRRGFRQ

{"molecule": "OC1(c2ccc(Cl)c(C(F)(F)F)c2)CCN(CCCC(c2ccc(F)cc2)c2ccc(F)cc2)CC1 [PENFLURIDOL]", "Ki / nM": 445}

---

Target: 5-hydroxytryptamine receptor 2C (Homo sapiens) (UniProt P28335)
Sequence (whole entry): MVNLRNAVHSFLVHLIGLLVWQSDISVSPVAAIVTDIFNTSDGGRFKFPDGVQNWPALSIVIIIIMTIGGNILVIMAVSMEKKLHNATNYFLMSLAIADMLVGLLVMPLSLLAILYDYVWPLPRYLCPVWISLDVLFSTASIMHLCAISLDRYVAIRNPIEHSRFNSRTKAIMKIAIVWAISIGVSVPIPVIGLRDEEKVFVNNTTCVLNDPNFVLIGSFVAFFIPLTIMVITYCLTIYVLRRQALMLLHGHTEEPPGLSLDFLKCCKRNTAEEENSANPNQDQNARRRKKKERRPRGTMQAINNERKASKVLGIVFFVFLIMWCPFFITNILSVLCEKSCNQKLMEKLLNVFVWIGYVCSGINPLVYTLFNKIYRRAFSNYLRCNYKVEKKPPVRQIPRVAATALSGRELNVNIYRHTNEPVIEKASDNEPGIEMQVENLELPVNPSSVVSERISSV
Assay: Displacement of [3H]Mesulergine from human 5-HT2C receptor expressed in HEK293FlpIN cells by radioligand binding assay relative to control
Assay type: cell-based
Design: concentration or dose not given beside the values
Details: concentration not given here

{"item smiles": "OC1(c2ccc(Cl)c(C(F)(F)F)c2)CCN(CCCC(c2ccccc2)c2ccccc2)CC1", "inhibition [%]": 82.9}
{"item smiles": "OC1(c2ccc(Cl)c(C(F)(F)F)c2)CCN(CCCCCc2ccc(F)cc2)CC1", "inhibition [%]": 57.7}
{"item smiles": "OC1(c2ccc(Cl)c(C(F)(F)F)c2)CCN(CCCN(c2ccc(F)cc2)c2ccc(F)cc2)CC1", "inhibition [%]": 86.7}
{"item smiles": "OC1(c2ccc(Cl)c(C(F)(F)F)c2)CCN(CCCC(c2ccc(F)cc2)c2ccc(F)cc2)CC1", "inhibition [%]": 95.3}

---

target: D(2) dopamine receptor (Homo sapiens, UniProt P14416); test: Displacement of [3H]N-methylspiperone from human dopamine D2 receptor expressed in stable fibroblast cells by radioligand binding assay
Sequence (P14416 whole entry): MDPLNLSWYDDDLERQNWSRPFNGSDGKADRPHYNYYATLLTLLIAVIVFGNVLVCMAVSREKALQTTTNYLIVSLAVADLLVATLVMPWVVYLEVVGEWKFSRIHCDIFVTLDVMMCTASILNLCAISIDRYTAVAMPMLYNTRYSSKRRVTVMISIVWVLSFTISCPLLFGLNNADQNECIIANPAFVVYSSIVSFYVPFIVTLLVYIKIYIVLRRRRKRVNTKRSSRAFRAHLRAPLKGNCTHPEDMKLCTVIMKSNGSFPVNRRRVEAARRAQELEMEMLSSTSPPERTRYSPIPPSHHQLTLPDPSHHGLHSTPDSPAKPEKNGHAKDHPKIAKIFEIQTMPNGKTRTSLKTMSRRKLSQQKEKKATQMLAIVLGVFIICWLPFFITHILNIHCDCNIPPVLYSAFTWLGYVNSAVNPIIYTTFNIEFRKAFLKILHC
quantity kind: log10 of Ki (log10 of the value in nM)

{"molecule": "OC1(c2ccc(Cl)c(C(F)(F)F)c2)CCN(CCCCC(c2ccc(F)cc2)c2ccc(F)cc2)CC1", "tested system": "D(2) dopamine receptor (Homo sapiens, UniProt P14416)", "log10 of Ki": 2.29}
{"molecule": "OC1(c2ccc(Cl)c(C(F)(F)F)c2)CCN(CCCC(c2ccc(F)cc2)c2ccc(F)cc2)CC1 [PENFLURIDOL]", "tested system": "D(2) dopamine receptor (Homo sapiens, UniProt P14416)", "log10 of Ki": 2.20}
{"molecule": "COc1ccc(N(CCCCN2CCC(O)(c3ccc(Cl)c(C(F)(F)F)c3)CC2)c2ccc(OC)cc2)cc1", "tested system": "D(2) dopamine receptor (Homo sapiens, UniProt P14416)", "log10 of Ki": 2.62}
{"molecule": "OC1(c2ccc(Cl)c(C(F)(F)F)c2)CCN(CCCC=C(c2ccc(F)cc2)c2ccc(F)cc2)CC1", "tested system": "D(2) dopamine receptor (Homo sapiens, UniProt P14416)", "log10 of Ki": 2.50}
{"molecule": "OC1(c2ccc(Cl)c(C(F)(F)F)c2)CCN(CCCCCc2ccc(F)cc2)CC1", "tested system": "D(2) dopamine receptor (Homo sapiens, UniProt P14416)", "log10 of Ki": 2.66}
{"molecule": "OC1(c2ccc(Cl)c(C(F)(F)F)c2)CCN(CCCCN(c2ccc(F)cc2)c2ccc(F)cc2)CC1", "tested system": "D(2) dopamine receptor (Homo sapiens, UniProt P14416)", "log10 of Ki": 2.74}
{"molecule": "OC1(c2ccc(Cl)c(C(F)(F)F)c2)CCN(CCCN(c2ccc(F)cc2)c2ccc(F)cc2)CC1", "tested system": "D(2) dopamine receptor (Homo sapiens, UniProt P14416)", "log10 of Ki": 2.17}
{"molecule": "OC1(c2ccc(Cl)c(C(F)(F)F)c2)CCN(CCCC(c2ccccc2)c2ccccc2)CC1", "tested system": "D(2) dopamine receptor (Homo sapiens, UniProt P14416)", "log10 of Ki": 1.58}
